Data credit: patent US12421242B2

Biological target: rM4 receptors (Rattus norvegicus, UniProt P08485)
Construct: expressed in transfected cells; host or cells: CHO cells
Sequence (P08485 whole entry): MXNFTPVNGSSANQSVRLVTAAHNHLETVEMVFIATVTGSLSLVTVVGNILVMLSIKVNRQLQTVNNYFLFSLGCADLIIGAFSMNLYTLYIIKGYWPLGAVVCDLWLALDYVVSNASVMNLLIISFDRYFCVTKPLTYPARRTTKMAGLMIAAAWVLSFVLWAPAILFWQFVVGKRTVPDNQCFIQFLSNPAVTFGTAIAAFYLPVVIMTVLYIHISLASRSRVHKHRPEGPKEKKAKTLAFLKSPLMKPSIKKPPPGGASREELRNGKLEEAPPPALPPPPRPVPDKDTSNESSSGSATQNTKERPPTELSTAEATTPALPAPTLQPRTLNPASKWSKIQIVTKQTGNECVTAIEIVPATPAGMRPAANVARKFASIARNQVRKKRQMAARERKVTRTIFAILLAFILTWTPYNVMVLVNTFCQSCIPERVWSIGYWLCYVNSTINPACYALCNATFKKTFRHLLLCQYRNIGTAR
Experiment: Rat M4 PAM pERK assay
Assay type: cell-based
Conditions: PAM mode
pEC50: −log10 of the molar value.
For each record, write down the corresponding pEC50.

| COMPOUND | TESTED_TARGET | REPORTED_VALUE |
| --- | --- | --- |
| COc1c2c(n(C)c(=O)c1Cl)CN(C(=O)c1cnn(C(F)(F)F)c1)C2C (single isomer, unassigned) [Compound I-74] | rM4 receptors (Rattus norvegicus, UniProt P08485) | 5.70 to 6.30 |

// each listed compound needs a value for pEC50
1. COc1cc(=O)n(C)c2c1C(C)N(C(=O)c1cnn(C(F)(F)F)c1)C2 (single isomer, unassigned) [Compound I-81]
2. COc1cc(=O)n(C)c2c1C(C)N(C(=O)c1cnn(C(F)(F)F)c1)C2 (centres unmarked) [Compound I-79]
3. Cc1c2c(n(C)c(=O)c1Cl)CN(C(=O)c1ccnc(C(F)(F)F)c1)C2
4. COc1c2c(n(C)c(=O)c1C)CN(C(=O)c1cnn(C(F)(F)F)c1)C2C (single isomer, unassigned) [Compound I-83]
5. Cc1c2c(n(C)c(=O)c1Cl)CN(C(=O)c1cn(CC(C)C)cn1)C2
6. Cc1c2c(n(C)c(=O)c1Cl)CN(C(=O)c1cc3n(n1)CCCC3)C2
7. Cc1c2c(n(C)c(=O)c1Cl)CN(C(=O)c1cnc(C3CC3)s1)C2

< 5.70
< 5.70
< 5.70
5.70 to 6.30
< 5.70
< 5.70
5.70 to 6.30

// each listed compound needs a value for pEC50
1. COc1c2c(n(C)c(=O)c1C)CN(C(=O)c1cnn(C(F)(F)F)c1)C2C (single isomer, unassigned) [Compound I-84]
2. COC(C)(C)Cn1cc(C(=O)N2Cc3c(C)c(Cl)c(=O)n(C)c3C2)cn1

["< 5.70", "< 5.70"]

// each listed compound needs a value for pEC50
1. COc1c2c(n(C)c(=O)c1Cl)CN(C(=O)c1cnn(C(F)(F)F)c1)C2C (single isomer, unassigned) [Compound I-75]
2. Cc1cc(=O)n(C)c2c1C(C)N(C(=O)c1cnn(C(F)(F)F)c1)C2 (centres unmarked) [Compound I-93]

< 5.70
< 5.70

###

Target: UniProtKB P08173
Sequence (P08173 whole entry): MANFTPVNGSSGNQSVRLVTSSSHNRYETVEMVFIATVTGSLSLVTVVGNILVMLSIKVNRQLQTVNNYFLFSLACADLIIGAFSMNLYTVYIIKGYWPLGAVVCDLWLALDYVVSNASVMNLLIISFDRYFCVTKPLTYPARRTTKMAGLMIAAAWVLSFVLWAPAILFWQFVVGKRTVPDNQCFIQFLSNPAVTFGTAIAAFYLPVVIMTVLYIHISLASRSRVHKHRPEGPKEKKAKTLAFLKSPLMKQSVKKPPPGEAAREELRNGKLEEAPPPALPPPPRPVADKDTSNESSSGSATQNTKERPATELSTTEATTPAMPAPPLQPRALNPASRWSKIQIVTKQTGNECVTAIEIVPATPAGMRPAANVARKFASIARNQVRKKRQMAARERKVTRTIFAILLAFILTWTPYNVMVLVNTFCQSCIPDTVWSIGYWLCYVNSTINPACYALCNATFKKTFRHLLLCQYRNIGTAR
Assay: Human M4 PAM pERK assay
Conditions: PAM mode
For each record, write down the corresponding EC50.

| MOLECULE | EC50 |
| --- | --- |
| Cc1c2c(n(C)c(=O)c1Cl)CN(C(=O)c1cc3n(n1)CCCC3)C2 [Compound I-32] | 100 to 500 nM |
| Cc1c2c(n(C)c(=O)c1Cl)CN(C(=O)c1cnc(C)n1C)C2 [Compound I-18] | 500 to 2000 nM |

// each listed molecule needs a value for EC50
1. Cc1c2c(n(C)c(=O)c1Cl)CN(C(=O)c1ccnc(C(F)(F)F)c1)C2 [Compound I-42]
2. Cc1c2c(n(C)c(=O)c1Cl)CN(C(=O)c1ccc3nonc3c1)C2 [Compound I-43]

1. 500 to 2000 nM
2. 100 to 500 nM

// each listed molecule needs a value for EC50
1. Cc1cc(=O)n(C)c2c1C(C)N(C(=O)c1ccc3nc(C(F)(F)F)sc3c1)C2 (single isomer, unassigned) [Compound I-101]
2. Cc1c2c(n(C)c(=O)c1Cl)CN(C(=O)c1cnn(C(C)C)c1)C2 [Compound I-10]
3. Cc1c2c(n(C)c(=O)c1Cl)CN(C(=O)c1cnc(CC(F)(F)F)s1)C2 [Compound I-39]
4. COc1cc(=O)n(C)c2c1C(C)N(C(=O)c1cnn(C(F)(F)F)c1)C2 (stereo not shown) [Compound I-79]
5. COC(C)(C)Cn1cc(C(=O)N2Cc3c(C)c(Cl)c(=O)n(C)c3C2)cn1 [Compound I-62]

1: 100 to 500 nM; 2: 100 to 500 nM; 3: 500 to 2000 nM; 4: 500 to 2000 nM; 5: > 2000 nM

// each listed molecule needs a value for EC50
1. COc1cc(=O)n(C)c2c1C(C)N(C(=O)c1cnn(C(F)(F)F)c1)C2 (single isomer, unassigned) [Compound I-81]
2. Cc1cc(=O)n(C)c2c1C(C)N(C(=O)c1cnn(C(F)(F)F)c1)C2 (stereo not shown) [Compound I-93]
3. Cc1cc(=O)n(C)c2c1CN(C(=O)c1cnn(C)c1)C2C (single isomer, unassigned) [Compound I-106]
4. Cc1c2c(n(C)c(=O)c1Cl)CN(C(=O)c1cn(C(C)C)cn1)C2 [Compound I-14]
5. COc1c2c(n(C)c(=O)c1C)CN(C(=O)c1cnn(C(F)(F)F)c1)C2C (single isomer, unassigned) [Compound I-83]
6. COc1c2c(n(C)c(=O)c1C)CN(C(=O)c1cnc(CC3CC3)s1)C2 [Compound I-86]
7. Cc1c2c(n(C)c(=O)c1Cl)CN(C(=O)c1cnn(Cc3ccccc3)c1)C2 [Compound I-23]
8. Cc1c2c(n(C)c(=O)c1Cl)CN(C(=O)c1cc(C(F)(F)F)n(C)c1)C2 [Compound I-68]

> 2000 nM
< 100 nM
> 2000 nM
500 to 2000 nM
< 100 nM
100 to 500 nM
100 to 500 nM
< 100 nM

// each listed molecule needs a value for EC50
1. Cc1c2c(n(C)c(=O)c1Cl)CN(C(=O)c1cnn(CC3(C)COC3)c1)C2 [Compound I-53]
2. Cc1cc(=O)n(C)c2c1C(C)N(C(=O)c1ccc3nc(C(F)(F)F)sc3c1)C2 (single isomer, unassigned) [Compound I-100]
3. COc1c2c(n(C)c(=O)c1C)CN(C(=O)c1cnn(C(F)(F)F)c1)C2C (single isomer, unassigned) [Compound I-84]
4. Cc1c2c(n(C)c(=O)c1Cl)CN(C(=O)c1cnc(C3CC3)s1)C2 [Compound I-21]
5. COc1c2c(n(C)c(=O)c1C)CN(C(=O)c1cnn(C(F)(F)F)c1)C2C (racemic) [Compound I-82]
6. Cc1c2c(n(C)c(=O)c1Cl)CN(C(=O)c1cnc(CC(C)C)s1)C2 [Compound I-34]
7. Cc1c2c(n(C)c(=O)c1Cl)CN(C(=O)c1csc(C(F)(F)F)n1)C2 [Compound I-26]
8. Cc1c2c(n(C)c(=O)c1Cl)CN(C(=O)c1cnn(C(F)(F)F)c1)[C@@H]2C [Compound I-76]

1. > 2000 nM
2. > 2000 nM
3. 500 to 2000 nM
4. < 100 nM
5. 100 to 500 nM
6. 100 to 500 nM
7. 100 to 500 nM
8. < 100 nM

// each listed molecule needs a value for EC50
1. Cc1c2c(n(C)c(=O)c1F)CN(C(=O)c1cnn(C(F)(F)F)c1)[C@@H]2C [Compound I-114]
2. Cc1c2c(n(C)c(=O)c1Cl)CN(C(=O)c1cnn(C(F)F)c1)[C@@H]2C [Compound I-77]
3. Cc1cc(=O)n(C)c2c1C(C)N(C(=O)c1ccc3nc(C4CC4)sc3c1)C2 (single isomer, unassigned) [Compound I-98]
4. COc1c2c(n(C)c(=O)c1Cl)CN(C(=O)c1cnn(C(F)(F)F)c1)C2C (single isomer, unassigned) [Compound I-75]
5. Cc1c2c(n(CC3CC3)c(=O)c1Cl)CN(C(=O)c1ccc3nc(C4CCC4)sc3c1)C2 [Compound I-70]
6. Cc1c2c(n(C)c(=O)c1Cl)CN(C(=O)c1cnn(CC(C)C)c1)C2 [Compound I-5]

["< 100 nM", "< 100 nM", "> 2000 nM", "> 2000 nM", "100 to 500 nM", "500 to 2000 nM"]
